Data credit: PubChem BioAssay AID1919013

System: LG0703-F498-PDC complex spheroid growth
Test: Anticancer human tumor LG0703-F498-PDC patient-derived lung adenocarcinoma cell line growth inhibition [AhR]
Conditions: second compound 1 µM; first compound 0.000949 µM; stronger effect = lower value
# viability, T/C values compiled below

1) CCc1c2c(nc3ccc(O)cc13)-c1cc3c(c(=O)n1C2)COC(=O)[C@]3(O)CC + Cc1cncc(-c2nc(NCCc3c[nH]c4ccccc34)c3ncn(C(C)C)c3n2)c1	80.5%
2) Nc1ncn(C2CC(O)C(CO)S2)c(=O)n1 (stereo unspecified) + Cc1ccccc1N=Nc1ccc(NC(=O)c2ccnn2C)c(C)c1	99.3%

Data point: Nc1ncn(C2CC(O)C(CO)S2)c(=O)n1 (stereo unspecified) + CC(CO)NC(=O)c1cc(-c2ccc(Cl)cc2)nn(-c2cnn(C)c2)c1=O ; viability, T/C = 82.4%

The molecule identified as CC(C)CC(NC(=O)C(Cc1ccccc1)NC(=O)c1cnccn1)B(O)O (stereo unspecified) + Cc1ccccc1N=Nc1ccc(NC(=O)c2ccnn2C)c(C)c1 registered its viability, T/C at 85.1%

Reported viability, T/C ( CC(C)CC(NC(=O)C(Cc1ccccc1)NC(=O)c1cnccn1)B(O)O (stereo unspecified) + Cc1cncc(-c2nc(NCCc3c[nH]c4ccccc34)c3ncn(C(C)C)c3n2)c1 ) = 115%

Value of measured viability, T/C for the entry CC(C)CC(NC(=O)C(Cc1ccccc1)NC(=O)c1cnccn1)B(O)O (stereo unspecified) + CC(CO)NC(=O)c1cc(-c2ccc(Cl)cc2)nn(-c2cnn(C)c2)c1=O : 75.9%

* * *

Test system: LG0703-F498-PDC complex spheroid growth
Assay: Anticancer human tumor LG0703-F498-PDC cell line growth inhibition [AhR];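 also: luminescence taken as a proxy for viable cell amount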;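 as to viability, T/C: percent of DMSO vehicle control where 100% means growth equal to vehicle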
Details: second compound 0.1 µM; first compound 0.3 µM; stronger effect = lower value
endpoint_name: viability, T/C

1. CCc1c2c(nc3ccc(O)cc13)-c1cc3c(c(=O)n1C2)COC(=O)[C@]3(O)CC + Cc1cncc(-c2nc(NCCc3c[nH]c4ccccc34)c3ncn(C(C)C)c3n2)c1	19.2%
2. CCN(c1cc(-c2ccc(CN3CCOCC3)cc2)cc(C(=O)NCc2c(C)cc(C)[nH]c2=O)c1C)C1CCOCC1 + Cc1ccccc1N=Nc1ccc(NC(=O)c2ccnn2C)c(C)c1	107%

Could you now look at the following compound, please?
Form: compound = O=C(C=Cn1cnc(-c2cc(C(F)(F)F)cc(C(F)(F)F)c2)n1)NNc1cnccn1 + Cc1ccccc1N=Nc1ccc(NC(=O)c2ccnn2C)c(C)c1 ; viability, T/C = 37.3%

* * *

Tested on: LG0703-F498-PDC complex spheroid growth
Assay: Anticancer human tumor LG0703-F498-PDC cell line growth inhibition [AhR];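 also: luminescence taken as a proxy for viable cell amount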
Settings: curve of first compound; second compound 0.316 µM
pIC50: −log10 of the molar value.
The following compounds are shown together with reported pIC50 values.

1) CCc1c2c(nc3ccc(O)cc13)-c1cc3c(c(=O)n1C2)COC(=O)[C@]3(O)CC + Cc1cncc(-c2nc(NCCc3c[nH]c4ccccc34)c3ncn(C(C)C)c3n2)c1	7.95
2) CC[C@@]1(O)C(=O)OCc2c1cc1n(c2=O)Cc2cc3c(CN(C)C)c(O)ccc3nc2-1 + CC(CO)NC(=O)c1cc(-c2ccc(Cl)cc2)nn(-c2cnn(C)c2)c1=O	< 7.00

Bench note, LG0703-F498-PDC complex spheroid growth: Nc1ccn(C2OC(CO)C(O)C2(F)F)c(=O)n1 (stereo unspecified) + CC(CO)NC(=O)c1cc(-c2ccc(Cl)cc2)nn(-c2cnn(C)c2)c1=O , pIC50 reads > 7.50

Assay LG0703-F498-PDC complex spheroid growth, sample CC1COCCN1c1cc(C2(S(C)(=N)=O)CC2)nc(-c2ccnc3[nH]ccc23)n1 (stereo unspecified) + Cc1cncc(-c2nc(NCCc3c[nH]c4ccccc34)c3ncn(C(C)C)c3n2)c1 , pIC50 read: < 5.00

Query O=C(C=Cc1cccc(S(=O)(=O)Nc2ccccc2)c1)NO + Cc1cncc(-c2nc(NCCc3c[nH]c4ccccc34)c3ncn(C(C)C)c3n2)c1 on LG0703-F498-PDC complex spheroid growth; pIC50 returned: 6.18

Item COc1cc(C2c3cc4c(cc3C(OC3OC5COC(C)OC5C(O)C3O)C3COC(=O)C23)OCO4)cc(OC)c1O (stereo unspecified) + Cc1cncc(-c2nc(NCCc3c[nH]c4ccccc34)c3ncn(C(C)C)c3n2)c1 was tested on LG0703-F498-PDC complex spheroid growth; the reported pIC50 is < 5.00
